Let's look at some compounds and their measured Bliss excess.
- System: HC-1 (Other Blood Carcinomas);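 further: after 72 h of two-drug dosing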
- testDetails: Bliss excess, mean over the matrix (fraction); higher = more synergy
Respond with the number and no other words.

| compound | observedMeasurement |
| --- | --- |
| NC1(C(=O)N[C@@H](CCO)c2ccc(Cl)cc2)CCN(c2ncnc3[nH]ccc23)CC1 [Capivasertib] + CC(=O)c1c(C)c2cnc(Nc3ccc(N4CCNCC4)cn3)nc2n(C2CCCC2)c1=O [Palbociclib] (first compound max 10 µM, 7x7, partner max 10 µM) | -0.0705 |

Consider the record given below.
Asked: I'm curious: which Bliss excess was measured for CCN(CCO)CCCOc1ccc2c(Nc3cc(CC(=O)Nc4cccc(F)c4)[nH]n3)ncnc2c1 [AZD2811] + C=CCn1c(=O)c2cnc(Nc3ccc(N4CCN(C)CC4)cc3)nc2n1-c1cccc(C(C)(C)O)n1 [AZD1775] (first compound max 1 µM, partner max 1 µM) tested on HC-1 (Other Blood Carcinomas)?;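 further: after 72 h of two-drug dosing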
Given back: 0.0697
